The measurements presented in this section are drawn from patent US9174979B2.

# System: human non-small cell lung cancer A549 cells
# experimental details: Inhibitory action on the proliferation of A549 cells
# Type: cell-based
# measurement conditions: 96 hours culture, TetraColor ONE
measured parameter: A549 proliferation inhibitory action IC50 (ng/mL)
One number for each entry, in ng/mL.

Worked set:
[
  {
    "smiles": "CC1(C)Oc2cc3c4c(c5ccc(O)cc5c3cc2O1)[C@H](O)[C@@H]1CCCN1C4.Cl",
    "unit text": "ng/mL",
    "measured result": 350.2
  },
  {
    "smiles": "COc1cc2c3c(c4cc(C)c(O)c(C)c4c2cc1OC)C[C@@H]1CCCN1C3.CS(=O)(=O)O",
    "unit text": "ng/mL",
    "measured result": 100.2
  },
  {
    "smiles": "COc1cc2c3c(c4ccc(O)cc4c2cc1OC)[C@H](OC(C)=O)[C@@H]1CCCN1C3.Cl",
    "unit text": "ng/mL",
    "measured result": 0.5
  }
]

Continue with the next molecule.
Please list A549 proliferation inhibitory action IC50 recorded for the molecule COc1cc2c3c(c4ccc(O)c(Cl)c4c2cc1OC)C[C@@H]1CCCN1C3.CS(=O)(=O)O 0.71
